All figures here come from a melting point compilation (Tetko et al.; mined from patent text by program, amines drawn as free bases though some values may be those of a salt).

Measured endpoint: melting point

> print(dat)
                                    compound  reported.value
 1  O=C1NC(=O)C2(N1)C1CC3CC(C1)CC2C3 (stereo unspecified)   290 to 293 °C
 2  COc1ccccc1-n1c(=O)[nH]c2c(C(N)=O)nc(C3CCCC3)nc21   244 to 246 °C
 3  CCOC(=O)c1cnc2c(C)cc(-c3ccc(C(F)(F)F)cc3)cn12          128 °C
 4  COC(=O)C1=C(C)NC(C)=C(C(=O)OCCCC#N)C1c1ccccc1[N+](=O)[O-] (stereo unspecified)     48 to 51 °C
 5    CCC(=O)N(C)c1cccc(-c2ccc3nnc(N)n3n2)c1   190 to 191 °C
 6  CCOCc1c(-c2ccccc2)oc2c(C(=O)NCCCN3CCN(c4ccccc4OC)CC3)cccc2c1=O   129 to 133 °C
 7  C[C@H](c1ccccc1)N1CCO[C@@H](c2ccc(Br)cc2)C1     85 to 87 °C
 8  CC(C)(C)OC(=O)OCc1ccc(COC(=O)OC(C)(C)C)cc1     71 to 74 °C
 9                       CCC(=O)c1ccc(SC)cn1     52 to 53 °C
10  CC(=O)N1CC(=O)N(C)C(=O)N1c1cc(Cl)c(C(C#N)c2ccc(Cl)cc2)c(Cl)c1 (stereo unspecified)          178 °C
11  Cc1nn(C2CCOC2)c(N)c1C#N (stereo unspecified)   134 to 135 °C
12  O=C(O)c1cn(C2CC2)c2c(Cl)c(N3CCC(CNCCF)C3)c(F)cc2c1=O (stereo unspecified)   138 to 142 °C
13  CCCCC(=O)SCC(Cc1ccccc1)C(=O)Nc1cc(C)cc(C(=O)O)c1 (stereo unspecified)   151 to 153 °C
14  Cc1cc(-c2ccccc2C)ccc1NC(=O)c1ccc2n1Cc1ccccc1N(C(=O)COc1ccc(Cl)cc1)C2   159 to 161 °C
15  CCCc1cc(C(=O)NC2=NC(=O)CN2C)ccc1OC(C(=O)NS(=O)(=O)c1ccc(C(C)C)cc1)c1ccc2c(c1)OCO2 (stereo unspecified)   137 to 139 °C
16          C=CCc1c(O)c(C(C)=O)cc(C(C)=O)c1O     84 to 86 °C
17  CS(=O)(=O)c1ccccc1-c1ccc(C(=O)N2Cc3ccc(C(=O)NCc4cccnc4)n3Cc3ccccc32)cc1   153 to 156 °C
18  CCOc1ccccc1N(C[C@H]1CC[C@H](CN(C(=O)Nc2ccc(N(C)C)cc2)c2ccccc2OCC)CC1)C(=O)Nc1ccc(N(C)C)cc1   153 to 155 °C
19  CS(=O)(=O)N1CCN([C@@H](CNS(=O)(=O)c2ccc(OCc3ccnc(-c4ccccc4)c3)cc2)C(=O)NO)CC1          100 °C
20                    C=CCn1c(SCCF)n[nH]c1=O           65 °C
21       N#Cc1ccc(Oc2ccc(Cl)c(Cl)c2)c(C=O)c1   122 to 126 °C
22  N#Cc1ccc(SC2SCC(O)C(O)C2O)cc1 (stereo unspecified)          175 °C
23          O=[N+]([O-])c1cccnc1Sc1nc(Cl)no1           84 °C
24                CCC(CC)(CC)C(=O)NC(C)(C)CO     57 to 58 °C
25  COc1ccc(N2C(=O)C(C)N(c3ccc(Cc4ccccc4)cc3)C2=S)cc1 (stereo unspecified)          122 °C
26                 COC(=O)c1ccc2cc(CO)ccc2c1   120 to 121 °C
27  CCOC(=O)c1c(COC(C)=O)cccc1S(=O)(=O)NC(=O)Nc1nc(OC)cc(OC)n1   162 to 163 °C
28           N=C(N)c1ccc(O)c([N+](=O)[O-])c1        > 240 °C
29      COc1cccc2c1Oc1ccc(C(=O)OC(C)C)cc1NC2          110 °C
30  CS(=O)(=O)c1ccccc1C1CCCC2(C1)C(=O)Nc1ccccc12 (stereo unspecified)   190 to 191 °C
31  CCCCCC[C@@H](C)Oc1cc2sc(C(=O)OC)c(O)c2cc1[N+](=O)[O-]     54 to 55 °C
32  CC(Oc1ccc(Cl)cc1Cl)c1ccnc2ncnn12 (stereo unspecified)   137 to 138 °C
33  CN=C1SCC(O)(c2ccc(Cl)c(S(=O)(=O)NCc3cccnc3)c2)N1C (stereo unspecified)   152 to 153 °C
34  N#Cc1cc(C(=O)NN2CCOCC2)ccc1OCC(=O)Nc1ccc(Cl)cn1   165 to 167 °C
35  COCC1CN(c2ccc(C3=CCCCC3)cc2)C(=O)O1 (racemic)   106 to 108 °C
36             COc1cc2sc(C(=O)O)cc2c(Cl)c1OC   267 to 270 °C
37                      CC1(C)CC(=O)CC(=O)N1   183 to 184 °C
38  COc1cc2c(c(Cl)c1Cl)SC(C1CCCCC1)C2O (stereo unspecified)   166 to 167 °C
39  CCCCCCCCC(O)C=Cc1cccc(Oc2cccc(C(=O)O)c2)n1 (racemic)     85 to 87 °C
40                     CCOC(=O)Nc1ccc(Cl)nc1          110 °C
41  COCOc1ccc(-n2c(SCc3ccc(Br)cc3)nc3ccc(Cl)cc32)cc1   123 to 124 °C

----------
Measured endpoint: melting point

> print(dat)
                                    compound  reported.value
 1         COC(=O)c1cc2cc(OC)c(OCCCl)cc2nc1N   145 to 157 °C
 2             CCN1C=C(N)N=C(C2CC2)c2ccccc21     93 to 95 °C
 3             CCCCCCOC(=O)c1nc2cc(Cl)ccc2o1     42 to 43 °C
 4  Cc1ccccc1-c1ccc(C(=O)N2Cc3ccc(C(=O)C(Cl)(Cl)Cl)n3Cc3ccccc32)cc1C   212 to 214 °C
 5  CCCCCCN(Cc1cccnc1)C(Nc1cc(C(C)(C)C)c(O)c(C(C)(C)C)c1)=C1C(=O)OC(C)(C)OC1=O   134 to 136 °C
 6   Cn1ncc2c1-c1c(Sc3ccccn3)sc(C(=O)O)c1CC2   231 to 232 °C
 7         CCOP(=O)(Cc1ccc(-c2ccccc2)cc1)OCC     55 to 58 °C
 8  CC(CNS(C)(=O)=O)n1nnc2cc3c(=O)n(C4CC4)nnc3cc2c1=O (stereo not given)   195 to 197 °C
 9     O=c1c2cc(F)ccc2[nH]c(=S)n1-c1ccccc1Cl   295 to 297 °C
10  C[C@H]1CC[C@H](Nc2nccc(-n3ncc4c([N+](=O)[O-])cccc43)n2)CC1   254 to 255 °C
11    O=C(Nc1nccs1)C1=C(O)c2ccsc2S(=O)(=O)C1   215 to 216 °C
12                NNC(=O)c1ccc2oc3ccccc3c2c1   216 to 218 °C
13  COc1cc(OC)c2c(=O)[nH]c(-c3cc(C)c(O)c(C)c3)nc2c1   291 to 293 °C
14  O=c1[nH]nc(-c2ccccc2)c(-c2ccccc2)c1S(=O)(=O)c1ccccc1   254 to 256 °C
15                      CC(=O)Nc1cc(Br)sc1Br   114 to 116 °C
16               O=[N+]([O-])c1cc(Cl)ccc1CBr     42 to 43 °C
17  O=C(c1cc(C(F)(F)F)cc(C(F)(F)F)c1)N1CCC2(CC1)C(=O)NCN2c1ccc(Cl)c(Cl)c1   220 to 222 °C
18  CN1CCc2cc(O)c(O)c(Sc3ccc([N+](=O)[O-])cc3)c2CC1   125 to 127 °C
19  CCCN(CCC)CCCn1cc(Br)c2c3c(c(-c4ccccc4Cl)cc21)C(=O)NC3=O   173 to 175 °C
20  Cc1cccc(-c2nc3ccc(OCC(C)N(C)C)cc3n2Cc2ccccc2)c1 (stereo not given)           74 °C

----------
Measured melting point, listed per entry for reference.
Measured endpoint: melting point

> print(dat)
                                    compound  reported.value
 1  O=C(O)CNC(=O)c1nc2ccc(NCCCN3CCC(OC(c4ccccc4)c4ccccc4)CC3)nn2n1   256 to 258 °C
 2  CC(C)(C)OC(=O)CN1C(=O)C(N2C(=O)c3ccccc3C2=O)CSCC1c1cccs1 (centres undefined)   211 to 212 °C
 3  CN(C)c1nonc1-c1nc2ccccc2n1CC(=O)c1ccc(Cl)cc1   120 to 123 °C
 4  Cc1oc(-c2ccccc2)nc1CCOc1ccc(COc2nn(C)cc2CC(=O)O)cc1   148 to 149 °C
 5  CC(C)c1c(CC[C@@H]2C[C@@H](O)CC(=O)O2)n(-c2ccc(F)cc2)c(=O)c2ccccc12   192 to 193 °C
 6  CCOc1cc(N(CC)CC)ccc1C1(c2c(C)n(CC)c3ccccc23)OC(=O)c2ccccc21 (centres undefined)          193 °C
 7  O=C(C=Cc1cccc(F)c1F)c1cnc2sc3c(n12)CCCCC3   193 to 195 °C
 8  CS(=O)(=O)c1ccc(-n2nc(C(F)(F)F)cc2-c2ccc(-c3ccsc3)cc2)cc1   154 to 155 °C
 9  CC(=O)c1c(-c2ccc(F)cc2)nn(CC2CC2)c(=O)c1Nc1cccc2ncccc12   169 to 170 °C
10             CCOC(=O)c1c(C)nn(C)c1CSC(=N)N   175 to 180 °C
11    CCN(CC)C(=O)Oc1cc(-c2ccccn2)nc2ccccc12          100 °C
12  CC(C)NCC(O)COc1ccc(CCSCC2CCC2)cc1 (centres undefined)           52 °C
13  CC(=O)N1CCC(=C2c3ccc(Cl)cc3CCc3cccnc32)CC1   155 to 157 °C
14  COC(=O)[C@H](C)NC(=O)CCCN(C(=O)c1ccc(Cl)cc1)c1c(C)cccc1C     91 to 92 °C
15  CC(C)C1(C)NC(c2ncc(Br)cc2C(=O)O)=NC1=O (centres undefined)   206 to 208 °C
16  Cc1cc(-c2ccccc2)nn1C(C)C(=O)N(C)C (centres undefined)     98 to 99 °C
17  CN1CCN2c3ccccc3C(O)c3ccccc3C2C1 (centres undefined)   137 to 138 °C
18       CCCc1nc2c(N)nc3ccccc3c2n1CC(OCC)OCC   148 to 150 °C
19  COC(=O)c1ccc(NN=CC(F)(F)F)cc1S(=O)(=O)NC(=O)Nc1nc(OC)nc(OC)n1   117 to 119 °C
